System: Human immunodeficiency virus 1
Assay: Inhibition of recombinant HIV1 protease at 50 nM
*1 amine or outer side, *2 acyl side, *3 side chain or, on linkers, in order; H or OH if unused. Where a SMILES comes first, the peptide text is derived from it. [ ]: non-standard residue; d: D form. X1 = O=C([C@@H](O)[C@H](Cc1ccccc1)N[*:1])[*:2]; Thz(5,5-Me2) = CC1(C)SCN[C@@H]1C(=O)O
Parameter measured: inhibition (%)
API: value field is a number in %; no unit string.

**Query** Determine its reported inhibition: CSCC[C@H](NC(=O)[C@@H](NC(=O)[C@H]1N(C(=O)[C@@H](O)[C@H](Cc2ccccc2)NC(=O)[C@@H](NC(=O)[C@H](CC(C)C)NC(C)=O)C(C)C)CSC1(C)C)C(C)C)C(N)=O (Ac-LV[X1][Thz(5,5-Me2)]VM-NH2)
**Result** 99

**Query** Annotate the compound CSCC[C@H](NC(=O)[C@@H](CSC)NC(=O)[C@H]1N(C(=O)[C@@H](O)[C@H](Cc2ccccc2)NC(=O)[C@@H](NC(=O)[C@H](CCC(N)=O)NC(C)=O)C(C)C)CSC1(C)C)C(N)=O with its measured inhibition.
**Result** 92

**Query** State its inhibition for this compound: CC[C@H](C)[C@H](NC(C)=O)C(=O)N[C@H](C(=O)N[C@@H](Cc1ccccc1)[C@H](O)C(=O)N1CSC(C)(C)[C@H]1C(=O)N[C@H](C(=O)N[C@@H](CCC(N)=O)C(N)=O)C(C)C)C(C)C (Ac-IV[X1][Thz(5,5-Me2)]VQ-NH2)
**Result** 95

**Query** Provide only the value of recorded inhibition for CC[C@H](C)[C@H](NC(C)=O)C(=O)N[C@H](C(=O)N[C@@H](Cc1ccccc1)[C@H](O)C(=O)N1CSC(C)(C)[C@H]1C(=O)N[C@H](C(=O)N[C@@H](Cc1ccccc1)C(N)=O)C(C)C)C(C)C (Ac-IV[X1][Thz(5,5-Me2)]VF-NH2)
**Result** 98

**Query** Output measured inhibition for this item: CC[C@H](C)[C@H](NC(C)=O)C(=O)N[C@H](C(=O)N[C@@H](Cc1ccccc1)[C@H](O)C(=O)N1CSC(C)(C)[C@H]1C(=O)N[C@H](C(=O)N[C@@H](CCSC)C(N)=O)[C@@H](C)CC)[C@@H](C)CC (Ac-II[X1][Thz(5,5-Me2)]IM-NH2)
**Result** 98

# next compound below
**Query** Entry CSCC[C@H](NC(=O)[C@@H](NC(=O)[C@H]1N(C(=O)[C@@H](O)[C@H](Cc2ccccc2)NC(=O)[C@@H](NC(=O)[C@H](CCC(N)=O)NC(C)=O)C(C)C)CSC1(C)C)[C@@H](C)O)C(N)=O (Ac-QV[X1][Thz(5,5-Me2)]TM-NH2) needs its inhibition filled in; supply it.
**Result** 78

---

Test system: Human immunodeficiency virus 1
Assay: Inhibition of recombinant HIV1 protease at 50 nM
*1 amine or outer side, *2 acyl side, *3 side chain or, on linkers, in order; H or OH if unused. Where a SMILES comes first, the peptide text is derived from it. [ ]: non-standard residue; d: D form. X1 = O=C([C@@H](O)[C@H](Cc1ccccc1)N[*:1])[*:2]; Thz(5,5-Me2) = CC1(C)SCN[C@@H]1C(=O)O
Parameter measured: inhibition

Answered cases to consult:
**Query** Provide inhibition value for the following compound: CC(C)[C@H](NC(=O)[C@H](CCC(N)=O)NC(=O)[C@@H]1CCCN1)C(=O)N[C@@H](Cc1ccccc1)[C@H](O)C(=O)N1CCC[C@H]1C(N)=O (H-PQV[X1]P-NH2)
**Result** < 30%

**Query** Report measured inhibition; entry is CSCC[C@H](NC(=O)[C@@H](NC(=O)[C@@H]1CCCN1C(=O)[C@@H](O)[C@H](Cc1ccccc1)NC(=O)[C@H](NC(=O)[C@H](N)CCC(N)=O)C(C)C)C(C)C)C(=O)N[C@@H](Cc1c[nH]cn1)C(=O)O
**Result** < 30%

**Query** Note inhibition for the compound shown: CC[C@H](C)[C@H](NC(C)=O)C(=O)N[C@H](C(=O)N[C@@H](Cc1ccccc1)[C@H](O)C(=O)N1CSC(C)(C)[C@H]1C(=O)N[C@H](C(=O)N[C@@H](CCSC)C(N)=O)C(C)C)C(C)C (Ac-IV[X1][Thz(5,5-Me2)]VM-NH2)
**Result** 98%

Continuing:
**Query** State, in one line, measured inhibition of CSCC[C@H](NC(=O)[C@@H](NC(=O)[C@@H]1CCCN1C(=O)[C@@H](O)[C@H](Cc1ccccc1)NC(=O)[C@H](NC(=O)[C@@H](CCC(N)=O)NC(C)=O)C(C)C)C(C)C)C(=O)N[C@@H](Cc1c[nH]cn1)C(=O)O
**Result** < 30%

**Query** Quote inhibition reported for CSCC[C@H](NC(=O)[C@H](CC(C)C)NC(=O)[C@H]1N(C(=O)[C@@H](O)[C@H](Cc2ccccc2)NC(=O)[C@@H](NC(=O)[C@H](CCC(N)=O)NC(C)=O)C(C)C)CSC1(C)C)C(N)=O (Ac-QV[X1][Thz(5,5-Me2)]LM-NH2) please.
**Result** 84%

**Query** Specify measured inhibition for CSCC[C@H](NC(=O)[C@@H](NC(=O)[C@@H]1CCCN1C(=O)[C@@H](O)[C@H](Cc1ccccc1)NC(=O)[C@@H](N)C(C)C)C(C)C)C(=O)N[C@@H](Cc1c[nH]cn1)C(=O)O (H-V[X1]PVMH-OH) .
**Result** < 30%

**Query** Respond only with inhibition recorded for CSCC[C@H](NC(=O)[C@@H](NC(=O)[C@H]1N(C(=O)[C@@H](O)[C@H](Cc2ccccc2)NC(=O)[C@H](CSC)NC(=O)[C@H](CCC(N)=O)NC(C)=O)CSC1(C)C)C(C)C)C(N)=O (Ac-QC(Me)[X1][Thz(5,5-Me2)]VM-NH2)
**Result** 96%

---

Tested on: Human immunodeficiency virus 1
Assay: Inhibition of recombinant HIV1 protease at 50 nM
*1 amine or outer side, *2 acyl side, *3 side chain or, on linkers, in order; H or OH if unused. Where a SMILES comes first, the peptide text is derived from it. [ ]: non-standard residue; d: D form. X1 = O=C([C@@H](O)[C@H](Cc1ccccc1)N[*:1])[*:2]; Thz(5,5-Me2) = CC1(C)SCN[C@@H]1C(=O)O
The reader will find reported inhibition values listed item by item below.
Your answer should be a plain number; it is taken to be in %.

Sample records with inhibition:
**Query** Determine reported inhibition for CC[C@H](C)[C@H](NC(=O)[C@@H](NC(=O)[C@H]1N(C(=O)[C@@H](O)[C@H](Cc2ccccc2)NC(=O)[C@@H](NC(=O)[C@@H](NC(C)=O)[C@@H](C)CC)C(C)C)CSC1(C)C)C(C)C)C(N)=O (Ac-IV[X1][Thz(5,5-Me2)]VI-NH2) ; test system: Human immunodeficiency virus 1.
**Result** 97

**Query** Enter recorded inhibition with Human immunodeficiency virus 1 for CSCC[C@H](NC(=O)[C@@H](NC(=O)[C@H]1N(C(=O)[C@@H](O)[C@H](Cc2ccccc2)NC(=O)[C@@H](NC(=O)[C@H](CCC(N)=O)NC(=O)[C@@H]2CCCN2)C(C)C)CSC1(C)C)C(C)C)C(=O)N[C@@H](Cc1c[nH]cn1)C(=O)O (H-PQV[X1][Thz(5,5-Me2)]VMH-OH) here.
**Result** 58

Further cases:
**Query** State inhibition (Human immunodeficiency virus 1) of CSCC[C@H](NC(=O)[C@@H](NC(=O)[C@H]1N(C(=O)[C@@H](O)[C@H](Cc2ccccc2)NC(=O)[C@H](CC(C)C)NC(=O)[C@H](CCC(N)=O)NC(C)=O)CSC1(C)C)C(C)C)C(N)=O (Ac-QL[X1][Thz(5,5-Me2)]VM-NH2) .
**Result** 83
